The measured values listed here are drawn from patent US7754440B2.

biological target: Nav1.3 sodium channel (Homo sapiens, UniProt Q9NY46); test: Na+ depletion/repletion persistent current assay with single-wavelength membrane potential dye on FLIPR-Tetra; format: cell-based
Sequence (Q9NY46 whole entry): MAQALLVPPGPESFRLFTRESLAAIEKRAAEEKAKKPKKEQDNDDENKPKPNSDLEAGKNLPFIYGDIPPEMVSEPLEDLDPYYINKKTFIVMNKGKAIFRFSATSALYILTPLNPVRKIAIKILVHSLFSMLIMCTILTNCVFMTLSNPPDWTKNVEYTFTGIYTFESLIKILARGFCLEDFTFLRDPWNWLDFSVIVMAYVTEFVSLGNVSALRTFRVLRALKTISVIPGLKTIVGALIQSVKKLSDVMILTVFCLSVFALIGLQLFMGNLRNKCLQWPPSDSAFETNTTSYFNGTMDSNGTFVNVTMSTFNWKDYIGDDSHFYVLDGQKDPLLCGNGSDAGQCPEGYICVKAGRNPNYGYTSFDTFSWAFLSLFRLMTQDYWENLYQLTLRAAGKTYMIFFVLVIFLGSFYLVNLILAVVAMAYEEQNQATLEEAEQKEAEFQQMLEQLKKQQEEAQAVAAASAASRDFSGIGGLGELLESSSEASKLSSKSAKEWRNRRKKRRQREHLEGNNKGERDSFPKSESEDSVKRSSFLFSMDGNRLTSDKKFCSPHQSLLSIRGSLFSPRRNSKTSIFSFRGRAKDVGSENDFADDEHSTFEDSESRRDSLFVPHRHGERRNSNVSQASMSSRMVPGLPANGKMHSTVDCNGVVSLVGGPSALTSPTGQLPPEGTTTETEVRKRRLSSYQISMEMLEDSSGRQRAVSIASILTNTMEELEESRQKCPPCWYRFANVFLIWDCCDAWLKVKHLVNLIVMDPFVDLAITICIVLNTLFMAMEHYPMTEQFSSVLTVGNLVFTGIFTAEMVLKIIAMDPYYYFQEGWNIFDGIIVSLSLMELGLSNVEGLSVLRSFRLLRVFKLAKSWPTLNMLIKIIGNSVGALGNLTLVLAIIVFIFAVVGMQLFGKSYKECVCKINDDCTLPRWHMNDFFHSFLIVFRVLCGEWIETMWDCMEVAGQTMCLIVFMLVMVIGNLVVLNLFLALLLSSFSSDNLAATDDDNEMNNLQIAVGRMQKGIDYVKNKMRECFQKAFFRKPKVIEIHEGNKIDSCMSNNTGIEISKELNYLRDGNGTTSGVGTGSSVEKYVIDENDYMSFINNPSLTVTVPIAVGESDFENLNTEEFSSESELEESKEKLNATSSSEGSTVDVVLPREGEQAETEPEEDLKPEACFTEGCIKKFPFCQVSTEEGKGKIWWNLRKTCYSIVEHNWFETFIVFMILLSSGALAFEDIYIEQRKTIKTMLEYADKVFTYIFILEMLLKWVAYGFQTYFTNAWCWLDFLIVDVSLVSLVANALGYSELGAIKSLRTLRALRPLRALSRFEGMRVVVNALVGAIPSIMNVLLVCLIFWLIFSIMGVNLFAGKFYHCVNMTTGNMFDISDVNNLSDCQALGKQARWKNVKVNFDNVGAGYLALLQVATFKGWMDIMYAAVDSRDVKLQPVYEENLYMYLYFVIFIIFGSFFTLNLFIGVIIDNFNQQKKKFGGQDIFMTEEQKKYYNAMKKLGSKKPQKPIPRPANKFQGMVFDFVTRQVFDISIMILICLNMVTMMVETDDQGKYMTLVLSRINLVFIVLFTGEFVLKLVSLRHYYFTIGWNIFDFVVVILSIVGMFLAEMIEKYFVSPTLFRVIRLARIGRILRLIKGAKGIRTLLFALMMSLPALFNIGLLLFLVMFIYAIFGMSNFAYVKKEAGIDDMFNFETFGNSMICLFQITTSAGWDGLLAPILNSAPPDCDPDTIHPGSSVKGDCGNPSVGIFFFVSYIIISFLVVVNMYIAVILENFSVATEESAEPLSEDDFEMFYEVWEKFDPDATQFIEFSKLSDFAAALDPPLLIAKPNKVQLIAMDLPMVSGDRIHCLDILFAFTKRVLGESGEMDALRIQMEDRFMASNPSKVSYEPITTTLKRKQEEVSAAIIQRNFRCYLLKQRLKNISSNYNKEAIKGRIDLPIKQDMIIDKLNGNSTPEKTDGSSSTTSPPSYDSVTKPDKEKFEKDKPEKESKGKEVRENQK
experimental-readout: pIC50
To interpret pIC50, take it as minus log10 of a concentration measured in moles per litre.

Q. Recorded pIC50 for CCN(CC)CC(=O)Nc1c(C)cccc1C [Lidocaine] , please?
A. 4.49

###

target: UniProtKB Q9NY46; assay: cell-based; assay type: cell-based; settings: comparison values for the persistent current assay; read-out: IC50 obtained using patch-clamp
experimental-readout: IC50 (µM)
Output spec: scalar in µM, unitless text.

Q. Recorded IC50 for CCN(CC)CC(=O)Nc1c(C)cccc1C , please?
A. 90
